B1: RHOBTB3 (parent)
chain: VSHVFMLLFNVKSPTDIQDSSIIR

# Variants of: B1
# assay-comment: protein stability index of a GFP-peptide fusion (GPS, HEK-293T) (PSI 1-6); higher = more stable;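 also: lentivirally expressed fusions sorted by FACS into six bins by GFP to DsRed ratio, PSI derived from sequencing read proportions per bin multiplied by bin number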
# run-conditions: c terminus: a fixed tail appended
experimental-readout: protein stability index
Please give the numeric answer without any surrounding text.

>  <sequence-input>
VSHVFMLLFNPKSPTDIQDSSIIR

>  <protein stability index>
2.94

$$$$
>  <sequence-input>
VSHVFMLLFNVKSPTDIQDSSIIG

>  <protein stability index>
3.07

$$$$
>  <sequence-input>
VSHVNMLLFNVKSPTDIQDSSIIR

>  <protein stability index>
1.97

$$$$
>  <sequence-input>
VSHVFMLLFNVKSPTDIQTSSIIR

>  <protein stability index>
3.05

$$$$
>  <sequence-input>
VSHVFMLLFNVKSPTDIQDSSIMR

>  <protein stability index>
4.19

$$$$
>  <sequence-input>
VSHVFMLLFNVKSPTDPQDSSIIR

>  <protein stability index>
2.88

$$$$
>  <sequence-input>
VSHVFMLLGNVKSPTDIQDSSIIR

>  <protein stability index>
1.69

$$$$
>  <sequence-input>
VSHVFMLGFNVKSPTDIQDSSIIR

>  <protein stability index>
2.55

$$$$

So, VSHVFMLLFGVKSPTDIQDSSIIR ? Its protein stability index was 2.24

So, VSHVFMLLFNVKSPTEIQDSSIIR ? Its protein stability index was 2.96

So, VSHVFMLQFNVKSPTDIQDSSIIR ? Its protein stability index was 2.75

So, VSHVCMLLFNVKSPTDIQDSSIIR ? Its protein stability index was 2.99

So, VSHVFMLLENVKSPTDIQDSSIIR ? Its protein stability index was 2.21

So, VSHVFTLLFNVKSPTDIQDSSIIR ? Its protein stability index was 2.99
